assayName: NCI Yeast Anticancer Drug Screen. Data for the mec2-1 strain (AID 157)
conditionNotes: S. cerevisiae mec2-1 strain, hits give high values; at 50.0 µM unless noted
About 79,000 compounds went through this panel and 15% of them were active in at least one assay; those are over-represented in the sample as a whole.
propertyMeasured: growth inhibition (%)
Form entry: value (%) — number only.

Known results for molecules:
C=C1C(=O)OC2C3[C@@]4(C)O[C@H]4[C@H]4O[C@@]34[C@](C)(O)CC(OC(C)=O)[C@@H]12 (stereo partly drawn)
-30.6
COC1C(OC(=O)c2ccc(C)[nH]2)C(O)C(Oc2ccc3c(O)c(NC(=O)c4c[nH]c(C(=O)Nc5c(O)c6ccc(OC7OC(C)(C)C(OC)C(OC(=O)c8ccc(C)[nH]8)C7O)c(C)c6oc5=O)c4C)c(=O)oc3c2C)OC1(C)C (stereo not drawn)
8.45
COc1cc(OC)c(/C=N/N=C(\N)NO)c(OC)c1
12.2
Nc1ccccc1SC(CC(=O)c1ccc(-c2ccccc2)cc1)c1ccco1 (stereo not drawn)
-30.6
CN1N=C(c2ccncc2)OC1c1cccc(F)c1 (stereo not drawn)
-45.4
C1COC2(OC1)OCCCO2
1.35
CCOC(=O)C1C(=O)CC(C)(O)C(C(=O)OCC)C1c1ccc(OC)cc1 (stereo not drawn)
2.55
CC1=C2CC(C)(C)/C=C\C(=O)/C(C)=C\C3=C[C@H](C)C[C@]3(O2)C1=O
71.2

Exercise: So what's the measured growth inhibition for this one? O=C(NC(CO)Cc1ccccc1)OCc1ccccc1 (stereo not drawn)
Solution: -5.25

Exercise: So what's the measured growth inhibition for this one? CC1=NN(C(=O)Nc2ccc(Cl)cc2)C(=O)C2CCC(=O)N12 (stereo not drawn)
Solution: 0.6

Exercise: So what's the measured growth inhibition for this one? Oc1ccc(-c2nc(-c3cccnc3)c(-c3ccc(F)cc3)[nH]2)cc1
Solution: -13.7

Exercise: So what's the measured growth inhibition for this one? CCC(=O)NC(Nc1ccccc1F)(C(F)(F)F)C(F)(F)F
Solution: -18.2

---

Entries and their measured growth inhibition follow.
assayName: NCI Yeast Anticancer Drug Screen. Data for the mlh1 rad18 strain (AID 175)
conditionNotes: S. cerevisiae mlh1 rad18 strain growth inhibition, hits give high values; at 50.0 µM unless noted
Compounds without any hit were thinned out: in the full panel of roughly 79,000, 15% have a hit.
Form entry: value (%) — number only.

Exercise: So what's the measured growth inhibition for this one? Cc1nc2c3c(ccc2[nH]c1=O)C(=O)c1ccccc1C3=O
Solution: 38.2

---

assayName: NCI Yeast Anticancer Drug Screen. Data for the cln2 rad14 strain (AID 165);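 further: 0% = growth equal to vehicle treated cultures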
conditionNotes: S. cerevisiae cln2 rad14 strain, hits give high values; at 50.0 µM unless noted
About 79,000 compounds went through this panel and 15% of them were active in at least one assay; those are over-represented in the sample as a whole.
Criterion: growth inhibition meeting or surpassing 10%. Met: criterion met. Not met: criterion not met.

Example entries begin here.
Cc1ccc(C)n1-n1c(Cc2ccccc2)n[nH]c1=O
criterion not met
S=c1[nH]c2ccccc2c(=S)n1CN1CCCCC1
criterion not met
CC(=O)Oc1cc(OC(C)=O)c2c(OC(C)=O)c3c(OC(C)=O)cc(C)cc3cc2c1
criterion met
COc1ccc(/C=C2\N=C(c3ccc([N+](=O)[O-])cc3)OC2=O)cc1OC
criterion not met

# next compound below
Exercise: Exam item: decide whether the reported growth inhibition for O=C(Nc1ccc(S(=O)(=O)c2ccc(F)cc2)cc1)OC1CCCCC1 is at least 10%.
Solution: criterion met

---

assayName: NCI Yeast Anticancer Drug Screen. Data for the mlh1 rad18 strain (AID 175)
conditionNotes: S. cerevisiae mlh1 rad18 strain growth inhibition, hits give high values; at 50.0 µM unless noted
Compounds without any hit were thinned out: in the full panel of roughly 79,000, 15% have a hit.
Entries and their measured growth inhibition follow.
Form entry: value (%) — number only.

Known results for compounds:
COC(=O)[C@H]1C2CC[C@@H]3C45C[C@@H](c6ccoc6)O[C@@H]4O[C@@H](O2)C31CCC5C (stereo partly specified)
14.9
CCCCCCCCCOc1ccc(C=Nc2ccc(C)cc2)cc1
-4.65
Brc1ccccc1C#Cc1ccccc1Br
19.1
OCCCCCCCl
3.6
CCO/C([O-])=N\[n+]1c(C)nc2cc3c(cc2c1C)OCO3
8.9

API: the following record is the query input.
Exercise: So what's the measured growth inhibition for this one? NC(N)=N/N=C(/CC1OC(=O)c2ccccc21)c1ccc2ccccc2c1 (stereo unspecified)
Solution: -11.9

---

assayName: NCI Yeast Anticancer Drug Screen. Data for the cln2 rad14 strain (AID 165);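 further: 0% = growth equal to vehicle treated cultures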
conditionNotes: S. cerevisiae cln2 rad14 strain, hits give high values; at 50.0 µM unless noted
The panel holds about 79,000 compounds, 15% with a hit somewhere; the sample as a whole holds those more often.
Entries and their measured growth inhibition follow.
Form entry: value (%) — number only.

Known results for compounds:
CCCCC(O)CCC (configuration not stated)
4.85
Nc1cc(C(=O)O)[nH]c(=O)n1
-70.2
Cc1c(Cl)cc(Cl)c2c1C(=O)CC(C)O2 (configuration not stated)
-17.2

Exercise: So what's the measured growth inhibition for this one? FC(F)(F)C1CCCCC1[Si](C1CCCCC1C(F)(F)F)C1CCCCC1C(F)(F)F (configuration not stated)
Solution: 10.5

Exercise: So what's the measured growth inhibition for this one? O=C(C[n+]1ccccc1CO)c1ccc(-c2ccccc2)cc1
Solution: -4.85

Exercise: So what's the measured growth inhibition for this one? O=C(Nc1ccccc1)c1cc(S(=O)(=O)Nc2n[nH]c(=O)[nH]2)c(SSc2cc(Cl)c(C(=O)Nc3ccccc3)cc2S(=O)(=O)Nc2n[nH]c(=O)[nH]2)cc1Cl
Solution: -6.35

Exercise: So what's the measured growth inhibition for this one? Clc1ccc(/C=C/c2nc(Cl)c(-c3ccc(Cl)cc3)c(Cl)n2)cc1
Solution: 14.3

Exercise: So what's the measured growth inhibition for this one? CCC(CC)C(=O)OC1CCCCC1
Solution: -7.8

Exercise: So what's the measured growth inhibition for this one? Cc1ccc(Cl)c(NC(=O)Nc2ccccc2Cl)c1
Solution: -15.2

Exercise: So what's the measured growth inhibition for this one? O=C1C(Br)=C[C@H]2C3C=CC(Br)(C3=O)[C@@H]12 (some centres not stated)
Solution: 25.2

Exercise: So what's the measured growth inhibition for this one? O=C(Nc1ccccc1C(F)(F)F)C(c1ccccc1)c1ccccc1
Solution: 9.55

Exercise: So what's the measured growth inhibition for this one? c1ccc2nc3c(cc2c1)NCC3
Solution: -22.6

Exercise: So what's the measured growth inhibition for this one? CCCC1N[C@H](C(=O)O)CS1 (some centres not stated)
Solution: 7.2

---

assayName: NCI Yeast Anticancer Drug Screen. Data for the rad50 strain (AID 155);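 further: 0% = growth of vehicle-only cultures of the same strain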
conditionNotes: S. cerevisiae rad50 strain growth inhibition; at 50.0 µM unless noted
This is part of a sample that, as a whole, favours compounds with a hit. Of some 79,000 tested, about 15% had one in any assay. Activity calls are given as the source filed them. Rule as the data show it: active = growth inhibition above about 70%; inactive = the rest.
The reply should be one of these categories: 1.0 (active), 0.0 (inactive)

Example entries begin here.
Cn1c2c(c3ccccc31)CCN(CCCCN1CCN(c3ccccc3)CC1)C2=O
0.0
CCC12C=CCN3CC[C@@]4(c5cc([C@@]6(C(=O)OC)C[C@@H]7CN(CCc8c6[nH]c6ccccc86)C[C@](O)(CC)C7)c(OC)cc5N(C)[C@H]4[C@@](O)(C(=O)NCCCCCCCCCCCC(=O)O)[C@@H]1O)C32 (stereo not given in full)
0.0
C=CCC(Cc1ccccc1)C(N)=O (stereo not given)
0.0
Nc1nc(-c2cc(Br)ccc2N=NN2CCCCC2)nc2ccc(Br)cc12
1.0

Exercise: Status in this test for N#CC(C(=O)C(=O)Nc1nccs1)c1ccccc1 (stereo not given) ?
Solution: 0.0

---

assayName: NCI Yeast Anticancer Drug Screen. Data for the sgs1 mgt1 strain (AID 161);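 further: 0% = growth of cultures given vehicle only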
conditionNotes: S. cerevisiae sgs1 mgt1 strain; at 50.0 µM unless noted
This is part of a sample that, as a whole, favours compounds with a hit. Of some 79,000 tested, about 15% had one in any assay. Activity calls are given as the source filed them. No stated cut-off is given here; in the data, active means growth inhibition above about 70%; inactive means the rest.
The reply should be one of these categories: T = active, F = inactive

Example entries begin here.
CS(=O)(=O)c1nc2[nH]cnc(=S)c2[nH]1
F
COc1cc(C2NC(C(=O)O)CS2)cc(OC)c1OC (configuration not stated)
F
Nc1c(C(=O)O)ccc(O)c1O
F
Cc1ccc(S(=O)(=O)OC2CCN(C)CC2)cc1
F
CC(C)[Si]1(C(C)C)OCC2OC(n3ccc(=O)[nH]c3=O)C([Se]c3ccccc3)C2O[Si](C(C)C)(C(C)C)O1 (configuration not stated)
F

Exercise: Status in this test for COC(NC(=O)Nc1ccccc1C)(C(F)(F)F)C(F)(F)F ?
Solution: F

Exercise: Status in this test for CC1(C)OC1CS(=O)c1ccccc1 (configuration not stated) ?
Solution: F

Exercise: Status in this test for CCCCCCC1(C)NC(=O)NC1=O (configuration not stated) ?
Solution: F

Exercise: Status in this test for Cc1c(SC(Cl)(Cl)Cl)cc([N+](=O)[O-])c(N(C)C)c1[N+](=O)[O-] ?
Solution: F

Exercise: Status in this test for O=C(Nc1ccc(F)cc1)c1ccc([N+](=O)[O-])cc1 ?
Solution: F
